# MEASUREMENT PROTOCOL: Lipophilicity (logkw) by reversed-phase chromatography (RP-HPLC)
# Assay type: physicochemical
# TEST CONDITIONS: intercept of logk vs methanol fraction, n = 4
List of logkw (Table S2) values.
I'd appreciate a reply containing only the number, no unit.

CC(C)(C)NCC(O)CN1C(=O)C2C(C1=O)C1(C)C(=O)C2(C)C(c2ccccc2)=C1c1ccccc1 (stereo not drawn) [1c]	4.9077
CC(C)(C)NCC(O)CN1C(=O)C2C(C1=O)C1(c3ccccc3)CC2(c2ccccc2)C(c2ccccc2)=C1c1ccccc1 (stereo not drawn) [3c]	6.0611
CC12C(=O)C(C)(C(c3ccccc3)=C1c1ccccc1)C1C(=O)N(CC(O)CN3CCOCC3)C(=O)C12 (stereo not drawn) [1g]	4.8345

[Q] # lookup: logkw (Table S2) of CCNCC(O)CN1C(=O)C2C(C1=O)C1(C)C(=O)C2(C)C(c2ccccc2)=C1c1ccccc1 (stereo not drawn) [1b]
[A] 4.7844

[Q] # lookup: logkw (Table S2) of CCN(CC)CC(O)CN1C(=O)C2C(C1=O)C1(c3ccccc3)CC2(c2ccccc2)C(c2ccccc2)=C1c1ccccc1 (stereo not drawn) [3d]
[A] 6.2845

[Q] # lookup: logkw (Table S2) of CCC12C(=O)C(CC)(C(c3ccccc3)=C1c1ccccc1)C1C(=O)N(CC(O)CNC(C)(C)C)C(=O)C12 (stereo not drawn) [2c]
[A] 4.7442
